experiment: chemical genetic growth profiling, strain panel (AID 1159580);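 note: tested at 20 µM; growth read once vehicle control cultures reached saturation at 30 °C; 1 = growth at the plate median or of vehicle wells; lower values mean less growth of the strain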; settings: S. cerevisiae deletion strains, growth OD, locus YDL101C, strain DUN1, active compounds read low
The whole screen tested about 5,500 compounds, of which about 2,000 (36%) were called active. Roughly 18% stayed inconclusive and do not appear here. This is one part of the list.
hey, just use True if measured normalized growth is less than 1, otherwise False

O=C(NC(=S)Nc1ccc(Cl)cc1)c1ccc([N+](=O)[O-])o1 = False
C[C@]12CCC3C(CC[C@H]4C[C@@H](O)CC[C@]34C)C1CCC2=O (stereo not given in full) = True

For the next question, use this molecule.
Check if normalized growth falls below 1 for COc1c2occc2cc2ccc(=O)oc12 .
True

---

test: chemical genetic growth profiling, strain panel (AID 1159580);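 note: tested at 20 µM; growth read once vehicle control cultures reached saturation at 30 °C; 1 = growth at the plate median or of vehicle wells; lower values mean less growth of the strain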; conditions: S. cerevisiae deletion strains, growth OD, locus YHR030C, strain SLT2
In all, about 5,500 compounds went through this assay and about 2,000 (36%) were called active. About 18% were inconclusive and are not listed. Cut-off read from the data, not from the text of the source: active = normalized growth mostly below about 0.91 (no sharp cut-off); inconclusive = no clear call, values can overlap the other calls; inactive = mostly above about 0.92. Some of the results follow.
# output must be one of YES for active, NO for inactive

Hey, what did the test say about NNC(=S)Nc1ccc(C(F)(F)F)cc1 ?
YES

---

assay: chemical genetic growth profiling, strain panel (AID 1159580);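 note: tested at 20 µM; growth read once vehicle control cultures reached saturation at 30 °C; 1 = growth at the plate median or of vehicle wells; lower values mean less growth of the strain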; details: S. cerevisiae deletion strains, growth OD, locus YGL173C, strain kem1, active compounds read low
Screen size: about 5,500 compounds; about 2,000 (36%) were called active. Roughly 18% stayed inconclusive and do not appear here. This is one part of the list.
property: normalized growth

Here is how some compounds turned out for normalized growth.
FC(F)(F)COCC(F)(F)F = 1 (inactive)
C[N+]1(C)C2CC[C@H]1CC(OC(=O)C(O)c1ccccc1)C2 (stereo partly specified) = 1.01 (inactive)
N#C/C(=C\c1ccc(O)cc1)C(=O)O = 1 (inactive)
C[C@]12C=CC(=O)C=C1CCC1C2CC[C@]2(C)C(=O)CCC12 (stereo partly specified) = 0.98 (inactive)
C[C@]12C=CC(=O)C=C1CCC1C2C(=O)C[C@@]2(C)C1CC[C@]2(O)C(=O)CO (stereo partly specified) = 0.994 (inactive)

Looking up C=C(C)c1cc2cc(C(C)=O)c(O)cc2o1 , I found its normalized growth recorded as 0.971 (inactive)

---

test: chemical genetic growth profiling, strain panel (AID 1159580);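 note: tested at 20 µM; growth read once vehicle control cultures reached saturation at 30 °C; 1 = growth at the plate median or of vehicle wells; lower values mean less growth of the strain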; settings: S. cerevisiae deletion strains, growth OD, locus YNL298W, strain CLA4, active compounds read low
Out of some 5,500 compounds screened, about 2,000 (36%) were called active. About 18% were inconclusive and are not listed. The list shows a part of the results.
property: normalized growth
Would you mind answering with just the numeric figure?

Looking up COc1cc(O)c(C(=O)O)c(O)c1 , I found its normalized growth recorded as 0.977

Looking up CN1CCN(CCCN2c3ccccc3Sc3ccc(Cl)cc32)CC1 , I found its normalized growth recorded as 0.937

Looking up COC(=O)C1=CO[C@@H](O[C@@H]2O[C@H](CO)[C@@H](O)[C@H](O)[C@H]2O)[C@@H]2[C@@H](C)[C@@H](O)C[C@H]12 , I found its normalized growth recorded as 1

Looking up O=C1c2ccc(O)c(O)c2C(=O)c2c(O)ccc(O)c21 , I found its normalized growth recorded as 0.994

Looking up CC(C)(O)CC[C@@H](O)[C@](C)(O)C1CC[C@@]2(O)C3=CC(=O)C4C[C@@H](O)[C@@H](O)C[C@]4(C)C3CC[C@]12C (stereo not given in full) , I found its normalized growth recorded as 0.988

Looking up NCCS , I found its normalized growth recorded as 1.03

Looking up c1coc(CNc2ncnc3nc[nH]c23)c1 , I found its normalized growth recorded as 1

Looking up COc1cc(OC)c(-c2c(OC)cc(OC)cc2OC)c(OC)c1 , I found its normalized growth recorded as 1.03

Looking up COc1cc2c(cc1-c1coc3c4c(c(OC)cc3c1=O)OC(C)(C)C=C4)OCO2 , I found its normalized growth recorded as 0.953
